Reported pIC50 values are given for each entry in this list.
Target: Pancreatic triacylglycerol lipase (Sus scrofa)
Sequence (P00591 whole entry): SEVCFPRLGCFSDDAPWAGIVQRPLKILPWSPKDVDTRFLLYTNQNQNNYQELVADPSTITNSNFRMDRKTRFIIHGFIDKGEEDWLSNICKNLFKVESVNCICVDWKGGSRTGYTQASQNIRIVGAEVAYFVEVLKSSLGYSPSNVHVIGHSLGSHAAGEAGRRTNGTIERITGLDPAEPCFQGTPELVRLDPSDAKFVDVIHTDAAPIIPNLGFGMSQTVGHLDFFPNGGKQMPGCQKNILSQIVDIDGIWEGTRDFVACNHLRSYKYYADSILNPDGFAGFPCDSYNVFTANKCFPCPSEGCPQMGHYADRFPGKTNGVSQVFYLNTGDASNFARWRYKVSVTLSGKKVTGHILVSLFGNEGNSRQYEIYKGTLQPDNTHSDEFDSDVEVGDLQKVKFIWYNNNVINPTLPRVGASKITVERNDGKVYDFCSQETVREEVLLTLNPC
pIC50: −log10 of the molar value.
Assay Readout: pIC50

CCn1c2ccccc2c2cc(C(=O)C(=O)Nc3ccc4ncccc4c3)ccc21    4.81
O=C(Nc1ccc(F)cc1)C(=O)c1ccc2c(c1)c1ccccc1n2Cc1ccc(Cl)cc1    4.55
COc1cc(NC(=O)C(=O)c2ccc3c(c2)c2ccccc2n3C)cc(OC)c1OC    4.64

Source of measurements: ChEMBL document CHEMBL3872244
